All figures here come from the kinase profiling compilation of Christmann-Franck et al. (2016).

- Assayed system: RPS6KA6 KD1 KD2 (human) (UniProt Q9UK32)
- Sequence (Q9UK32 whole entry, looked up): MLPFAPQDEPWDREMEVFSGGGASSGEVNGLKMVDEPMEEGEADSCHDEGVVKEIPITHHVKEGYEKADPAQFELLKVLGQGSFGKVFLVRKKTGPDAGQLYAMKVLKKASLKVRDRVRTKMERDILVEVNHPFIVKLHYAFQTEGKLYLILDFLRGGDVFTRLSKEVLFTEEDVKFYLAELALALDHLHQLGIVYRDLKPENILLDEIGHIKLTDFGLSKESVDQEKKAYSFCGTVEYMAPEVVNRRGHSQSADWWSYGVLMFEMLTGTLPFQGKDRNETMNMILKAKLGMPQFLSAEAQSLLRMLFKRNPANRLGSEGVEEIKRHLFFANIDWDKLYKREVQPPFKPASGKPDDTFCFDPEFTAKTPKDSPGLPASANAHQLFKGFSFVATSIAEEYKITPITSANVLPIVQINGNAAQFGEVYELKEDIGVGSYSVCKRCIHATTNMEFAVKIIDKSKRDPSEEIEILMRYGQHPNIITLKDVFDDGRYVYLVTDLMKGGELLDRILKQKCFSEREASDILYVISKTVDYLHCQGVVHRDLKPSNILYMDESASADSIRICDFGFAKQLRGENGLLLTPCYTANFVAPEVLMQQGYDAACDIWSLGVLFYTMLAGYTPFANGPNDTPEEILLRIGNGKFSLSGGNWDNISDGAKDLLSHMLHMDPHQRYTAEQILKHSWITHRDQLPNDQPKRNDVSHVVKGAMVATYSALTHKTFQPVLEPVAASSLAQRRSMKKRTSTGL
- Experiment description: Caliper, Mobility shift assay off-chip
- Assay context: compound 0.2 µM
Measured inhibition, listed per entry.
Numbers only here, please. The scale is %.

Illustrative cases are given below, each with its answer.
>>> print(df.to_string())
                            chemical_string                            assayed_system  measured_attribute  experimental_result
0  COc1cc2c(Oc3ccc4[nH]c(C)cc4c3F)ncnc2cc1OCCCN1CCCC1  RPS6KA6 KD1 KD2 (human) (UniProt Q9UK32)          inhibition                 -2.3
1  CNC(=O)c1cc(Oc2ccc(NC(=O)Nc3ccc(Cl)c(C(F)(F)F)c3)cc2)ccn1  RPS6KA6 KD1 KD2 (human) (UniProt Q9UK32)          inhibition                 -6.2
2  CCN(CC)CCNC(=O)c1c(C)[nH]c(/C=C2\C(=O)Nc3ccc(F)cc32)c1C  RPS6KA6 KD1 KD2 (human) (UniProt Q9UK32)          inhibition                 80.7

[ask] GET /values?readout=inhibition&item= Cc1ccc(Nc2nccc(N(C)c3ccc4c(C)n(C)nc4c3)n2)cc1S(N)(=O)=O
[reply] 1.7
